Recorded Peak Time of Drug Conc., one value per entry.
test: Pharmacokinetic experiment in mouse; format: in vivo; details: female CB17-SCID mice, oral dose 25 mg/kg
Number plus unit, in that order.

Reference set, count: 5
Compound: CC(C)OC(=O)NC1CCC(c2ncc(-c3ccc(Nc4ccc(F)cn4)cc3S(=N)(=O)C3CC3)s2)CC1 (stereo not shown)
Peak Time of Drug Conc.: 5 h
//
Compound: CC(C)OC(=O)Nc1ccc(-c2cnc([C@H]3CC[C@H](NC(=O)OC(C)C)CC3)s2)c(S(=N)(=O)C2CC2)c1 (stereo partly shown)
Peak Time of Drug Conc.: 1.3 h
//
Compound: CC(C)OC(=O)N[C@H]1CC[C@H](c2ncc(-c3ccc(Nc4cn(C)nn4)cc3S(=N)(=O)C3CC3)s2)CC1 (stereo partly shown)
Peak Time of Drug Conc.: 1 h
//
Compound: Cc1cc(Nc2ccc(-c3cnc(C4CCC(NC(=O)OC(C)C)CC4)s3)c(S(=N)(=O)C3CC3)c2)n[nH]1 (stereo not shown)
Peak Time of Drug Conc.: 1 h
//
Compound: Cc1cc(Nc2ccc(-c3cnc([C@H]4CC[C@H](NC(=O)OC(C)C)CC4)s3)c(S(=O)(=O)C3COC3)c2)n[nH]1
Peak Time of Drug Conc.: 1 h

Request: # get_value(readout='Peak Time of Drug Conc.', item= COc1ccc(-c2ccc(-c3cnc([C@H]4CC[C@H](NC(=O)OC(C)C)CC4)s3)c([S@@](=N)(=O)C3CC3)c2)cn1 (stereo in doubt) )
Result: 1.3 h

Request: I have this compound here, CC(C)OC(=O)NC1CCC(c2ncc(-c3ccc(Nc4cnn(C)c4)cc3S(=O)(=O)C3CC3)s2)CC1 (stereo not shown) , and I need its recorded Peak Time of Drug Conc..
Result: 0.75 h

---

tested on: Daudi cells; experiment: Inhibition of human Daudi lymphoma cell proliferation (Cell-Titer Glo); assay type: cell-based; details: Homo sapiens, 72 h, 3 days incubation, read-out: Anti-Proliferative Activity Against Daudi cells IC50
Reported IC50 values are given for each entry in this list.
Hi! Could you send only the number? It should be in µM, unit omitted.

Molecule: CC(C)OC(=O)N[C@H]1CC[C@H](c2ncc(-c3ccc(Nc4cc(C5CC5)[nH]n4)cc3S(=N)(=O)C3CC3)s2)CC1 (some centres unmarked)
Unit String: µM
IC50: 0.07

Molecule: CC(C)OC(=O)NC1CCC(c2ncc(-c3ccc(Nc4ccc(F)cn4)cc3S(=O)(=O)C3CC3)s2)CC1 (centres unmarked)
Unit String: µM
IC50: 0.022

Molecule: CC(C)OC(=O)N[C@H]1CC[C@H](c2ncc(-c3ccc(-n4cccn4)cc3S(=O)(=O)C3CC3)s2)CC1
Unit String: µM
IC50: 0.29

Molecule: CC(C)OC(=O)N[C@H]1CC[C@H](c2ncc(-c3ccc(Nc4cc(C5CC5)[nH]n4)cc3S(=O)(=O)C(C)C)s2)CC1
Unit String: µM
IC50: 0.062

Molecule: Cc1cc(Nc2ccc(-c3cnc([C@H]4CC[C@H](NC(=O)OC(C)C)CC4)s3)c(S(=O)(=O)NC(C)(C)C)c2)n[nH]1
Unit String: µM
IC50: 0.048

Request: Can you look up IC50 on Daudi cells for `Cc1cc(Nc2ccc(-c3cnc([C@H]4CC[C@H](NC(=O)OC(C)C)CC4)s3)c(S(=O)(=O)C3CCC3)c2)n[nH]1` ?
Result: 0.004

Request: // lookup IC50 | system=Daudi cells | key= `Cc1cc(Nc2ccc(-c3cnc([C@H]4CC[C@H](NC(=O)OC(C)C)CC4)s3)c(S(=O)(=O)C(C)C)c2)n[nH]1`
Result: 0.051

Request: Query for Daudi cells: what IC50 does the record show for CC(C)OC(=O)Nc1ccc(-c2cnc(C3CC4CCC(C3)C4NC(=O)OC(C)C)s2)c(S(=O)(=O)NC(C)(C)C)c1 (centres unmarked) ?
Result: 0.44

Request: Field: IC50 (Daudi cells). Entry: `COc1ccc(Nc2ccc(-c3cnc([C@H]4CC[C@H](NC(=O)OC(C)C)CC4)s3)c(S(=O)(=O)C3CC3)c2)nc1`
Result: 0.004

Request: Daudi cells / IC50 / `Cc1cc(Nc2ccc(-c3cnc([C@H]4CC[C@H](NC(=O)OC(C)C)CC4)s3)c(S(=O)(=O)C(C)C)c2)no1` : value?
Result: 0.33

Request: Give IC50 (Daudi cells) of the following molecule: `CC(C)OC(=O)N[C@H]1CC[C@H](c2ncc(-c3ccc(Nc4ccc(=O)[nH]c4)cc3S(=O)(=O)C3CC3)s2)CC1`
Result: 0.14

Request: Checklist item: IC50 tested on Daudi cells, entry CC(C)OC(=O)Nc1ccc(-c2cnc(C3CCC(NC(=O)OC(C)C)CC3)s2)c(S(=N)(=O)C(C)C)c1 (centres unmarked) , value?
Result: 1.08

Request: Recorded IC50 for `CC(C)OC(=O)N[C@H]1CC[C@H](c2ncc(-c3ccc(NC(=O)N4CCc5ccccc5C4)cc3S(=O)(=O)NC(C)(C)C)s2)CC1` with Daudi cells, please?
Result: 0.02

Request: Record CC(C)OC(=O)NC1CCC(c2ncc(-c3ccc(NC(=O)C4Cc5ccccc5CN4)cc3S(=O)(=O)NC(C)(C)C)s2)CC1 (centres unmarked) : what is its IC50 with Daudi cells?
Result: 0.41

Request: Please provide the recorded IC50 for Cc1cc(Nc2ccc(-c3cnc([C@H]4CC[C@H](NC(=O)OC(C)C)CC4)s3)c(S(=N)(=O)C3CCC3)c2)n[nH]1 (some centres unmarked) , tested on Daudi cells.
Result: 0.028

Request: Missing value: IC50, Daudi cells, entry `CC(C)OC(=O)N[C@H]1CC[C@H](c2ncc(-c3ccc(Nc4ccno4)cc3S(=O)(=O)NC(C)(C)C)s2)CC1` . Fill in?
Result: 0.34

Request: Lab request: please report IC50 under test system Daudi cells for `CC(C)OC(=O)N[C@H]1CC[C@H](c2ncc(-c3ccc(NC(=O)NCc4ccccc4)cc3P(C)(C)=O)s2)CC1`
Result: 0.13

Request: Kindly state the measured IC50 obtained for `Cc1cc(Nc2ccc(-c3ncc([C@H]4CC[C@H](NC(=O)OC(C)C)CC4)s3)c(S(=O)(=O)C3CC3)c2)n[nH]1` with Daudi cells.
Result: 1.5

Request: Request body: readout IC50, system Daudi cells, query `CC(C)OC(=O)N[C@H]1CC[C@H](c2ncc(-c3ccc(Nc4cc(CO)[nH]n4)cc3S(=O)(=O)C3CC3)s2)CC1` . Return the value.
Result: 0.004

Request: Which measured IC50 belongs to `CC(C)OC(=O)N[C@H]1CC[C@H](c2ncc(-c3ccc(Nc4ccon4)cc3S(=O)(=O)NC(C)(C)C)s2)CC1` , tested on Daudi cells?
Result: 2.65

Request: Fill in the recorded IC50 for this molecule, with Daudi cells as test system: `Cc1cc(Nc2ccc(-c3cnc([C@H]4CC[C@H](NC(=O)OC(C)C)CC4)s3)c(P3(=O)CCCC3)c2)n[nH]1`
Result: 0.03

Request: Record lookup: for Daudi cells, what IC50 belongs to `Cc1cc(Nc2ccc(-c3cnc([C@H]4CC[C@H](NC(=O)OC(C)C)CC4)s3)c(S(=O)(=O)C(C)C)c2)sn1` ?
Result: 0.15

Request: Can you look up IC50 on Daudi cells for `Cc1cc(Nc2ccc(-c3cnc([C@H]4CC[C@H](NC(=O)OC(C)C)CC4)s3)c(S(=O)(=O)C(F)(F)F)c2)n[nH]1` ?
Result: 0.065

Request: Find IC50 (Daudi cells) for the entry `CC(C)OC(=O)Nc1ccc(-c2cnc([C@H]3CC[C@H](NC(=O)OC(C)C)CC3)s2)c(P(C)(C)=O)c1`
Result: 1.62

Request: What value of IC50 on Daudi cells does `CC(C)OC(=O)N[C@H]1CC[C@H](c2ncc(-c3ccc(Nc4cccnn4)cc3S(=O)(=O)C(C)C)s2)CC1` have?
Result: 0.68

Request: Lab note: need IC50 for CC(C)OC(=O)N[C@H]1CC[C@H](c2ncc(-c3ccc(NC(=O)NCc4ccccc4)cc3S(=N)(=O)C3CC3)s2)CC1 (some centres unmarked) on Daudi cells, anyone have it?
Result: 0.037
